# Tested on: COLO 205 colon
# assay-summary: NCI tumour cell line growth inhibition, 48 h
test-readout: TGI (µM)
Response body: numeric value in µM, unit text excluded.

Example entries begin here.
Just so you know, measured TGI for CCc1cc(Cc2cc(CC)c(NC(=O)C3=CC(=O)CC(c4ccc(OC)cc4)O3)c(CC)c2Cl)c(Cl)c(CC)c1NC(=O)C1=CC(=O)CC(c2ccc(OC)cc2)O1 (stereo not given) came out at 31.6

Just so you know, measured TGI for c1ccc(-c2nc(Nc3ccc(-c4nc5ccccc5[nH]4)cc3)nc(N3CCOCC3)n2)cc1 came out at 3.13

Just so you know, measured TGI for CN(C)c1cccc2[nH]c(-c3[nH]ncc3Nc3ccnc(N)n3)nc12 came out at 0.0837

Further cases:
Just so you know, measured TGI for Cc1cccc(C(C)(C)C)c1NC(=O)CC1C(=O)Nc2ccccc2S1=O (stereo not given) came out at 40.9

====

# Test system: HCT-15 colon
# assay-summary: NCI tumour cell line growth inhibition, 48 h; in the data active = GI50 below about 0.43 µM; inactive = the rest
Output constraint: value belongs to active, inactive

Consider the following illustrative entries.
Each compound tested received a call. Report the one for COc1cc2c(/C=C3/C(=O)Nc4ccccc43)c(Cl)n(Cc3ccccc3)c2cc1C .
inactive

Each compound tested received a call. Report the one for Cc1sc2ncnc(Sc3nc4ccccc4[nH]3)c2c1C .
inactive

Each compound tested received a call. Report the one for CCOC(=O)c1sc(=S)c2c(C(=O)c3ccccc3)c(C(=O)c3ccccc3)sc2c1C(=O)OCC .
inactive

Each compound tested received a call. Report the one for CCN(CC)c1ccc(/C=N/NC(=O)c2ccc(Nc3ccnc(C(F)(F)F)c3)cc2)c(O)c1 .
active

For the next question, use this compound.
Each compound tested received a call. Report the one for OCCNc1nc(NCCO)nc(Nc2ccc(C3=NN(c4cc(Cl)cc(Cl)c4)C(c4ccc(Cl)cc4)C3)cc2)n1 (stereo not given) .
inactive

====

# TGI values compiled below
# System: 786-0 renal
# assay-summary: NCI tumour cell line growth inhibition, 48 h

Example entries begin here.
Response field TGI (786-0 renal) for item O=c1cc/c(=N\Nc2ccccc2)c(=O)/c1=N/Nc1ccccc1 : > 50 µM

Response field TGI (786-0 renal) for item Cc1ccc(-c2c(C#N)c(-c3ccc(N(C)C)cc3)c(C#N)c(=O)n2NS(=O)(=O)c2ccccc2)cc1 : > 100 µM

Response field TGI (786-0 renal) for item CN(C)c1ccc(C2CC(=O)CC(c3ccc(N(C)C)cc3)C23C(=O)NC(=O)NC3=O)cc1 (centres undefined) : > 25 µM

Response field TGI (786-0 renal) for item CCCCCCN(C(=O)Oc1ccccc1)C(C#N)c1ccccc1 (centres undefined) : > 100 µM

Response field TGI (786-0 renal) for item N#Cc1nc(-c2cccc(Br)c2)cc(-c2ccc(Nc3nc(N4CCCCC4)nc(N4CCCCC4)n3)cc2)c1N : > 100 µM

Further cases:
Response field TGI (786-0 renal) for item O=S(=O)(O)C(F)(F)C(F)(F)C(F)(F)C(F)(F)F : > 100 µM

Response field TGI (786-0 renal) for item COc1cc(C2c3cccc4cccc(c34)C3CCC(=O)N32)cc(O)c1O (centres undefined) : > 50 µM

Response field TGI (786-0 renal) for item COC(=O)c1c/c(=N\NC(=O)CC(=O)Nc2ccccc2Cl)c2ccccc2o1 : > 100 µM

Data credit: PubChem BioAssay (NCI)
